Please go through the items and note down their TGI.
- Test system: NCI/ADR-RES ovarian
- assay-text: NCI tumour cell line growth inhibition, 48 h

Quick request: TGI for each listed item, please.
1. COc1ccc(Cl)cc1Nc1nc(C(F)(F)F)ccc1C(=O)N/N=C/c1ccc([N+](=O)[O-])cc1
2. N#Cc1nc(CSCc2ccccc2)oc1N

**Result**
["6.7 µM", "> 100 µM"]

----------
- Tested on: COLO 205 colon
- assay-text: NCI tumour cell line growth inhibition, 48 h
Please go through the items and note down their TGI.
Answers are plain numbers, in µM.

Below: 2 molecules and their reported TGI.
C#CCn1c(=O)ccn(/C(=C\C(=O)OCC)C(=O)OCC)c1=O : 3.17
O=[N+]([O-])c1cc([N+](=O)[O-])c(Cl)c(Cl)c1Cl : 2.03

Okay, now this molecule:
**Query** Lab request: please report TGI under test system COLO 205 colon for `OC(CC(CC(O)(C(F)(F)Cl)C(F)(F)Cl)=NNc1ccccc1)(C(F)(F)Cl)C(F)(F)Cl`
**Result** 3.51
